# protocol: COS7 lysate on small-molecule microarray, probe aHis, 635 nm (AID 1123);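 further: z-score combines 667nm fluorescence intensity with signal-to-noise per printed compound spot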
# condition info: COS7 cell lysate, fluorescence, higher = more signal
measured metric: composite z-score
Please reply with the value in numeric form only.

Tell me the measured composite z-score of CC(c1ccccc1)C(O)C1C=CC2C(=O)N(c3ccccc3)C(=O)C2N1Nc1ccc([N+](=O)[O-])cc1 (centres undefined) , please.
2.95

Tell me the measured composite z-score of "CN(C)CCCNC(=O)[C@@]1(C)c2ccccc2C(=O)N(Cc2ccccc2)[C@H]1c1ccc(CO)cc1" , please.
-0.358

Tell me the measured composite z-score of "COc1ccc([Si](C)(C)[C@@H]2[C@@H](CC(=O)N(CCO)Cc3ccccc3)O[C@]3(C(=O)N(c4ccccc4)c4ccccc43)[C@H]2C)cc1" , please.
1.07

Tell me the measured composite z-score of "CCCCCCc1nc(C2CC2)cc2c1[Si](C(C)C)(C(C)C)OC2" , please.
-0.535

* * *

# protocol: MM1S myeloma cell viability, profiling panel, resazurin fluorescence, basal, 24 h, PK04 Diversity Set (AID 1174);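 further: MM1S multiple myeloma cell line; test concentration not given here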
# condition info: higher = more signal, called active from +8 up or from −8 down
measured metric: z-score
Please reply with the value in numeric form only.

Some entries whose results are on file:
COc1ccc([Si](C)(C)[C@@H]2[C@@H](CC(=O)N(CCO)Cc3ccccc3)O[C@]3(C(=O)N(Cc4cccc(N5C(=O)c6cccc7cccc5c67)c4)c4ccccc43)[C@H]2C)cc1: -1.6
O=C1O[C@H](c2ccccc2)[C@H](c2ccccc2)N2[C@H]1[C@@H](C(=O)NC[C@H](O)c1ccccc1)[C@]1(C(=O)Nc3ccc(C#CCCO)cc31)[C@H]2c1ccc(OCCO)cc1: -0.0793
[N-]=[N+]=NCc1ccccc1[C@@H]1OC(c2ccc(OCCCO)cc2)=N[C@]1(CCS(=O)(=O)c1ccccc1)C(=O)NCC(O)CO (stereo partly specified): -0.121
COCCCNC(=O)[C@]1(CCS(=O)(=O)c2ccccc2)N=C(c2ccc(OCCCO)cc2)O[C@@H]1c1ccccc1N=[N+]=[N-]: -0.458

Tell me the measured z-score of CC(C)(C)N1CC=CC23O[C@@H]4C=CCOC(=O)[C@@H]4[C@H]2C(=O)N(CCCCCCO)[C@@H]3C1=O (stereo partly specified) , please.
0.448

Tell me the measured z-score of "COc1cc2c(cc1OC)CN(C(=O)[C@@H]1[C@H]3C(=O)O[C@H](c4ccccc4)[C@H](c4ccccc4)N3[C@H](c3ccc(OCCO)cc3)[C@@]13C(=O)Nc1ccccc13)CC2" , please.
-1.54

* * *

# experimental system: Torsin-1A (Homo sapiens) (UniProt O14656)
# Sequence (O14656 whole entry, looked up): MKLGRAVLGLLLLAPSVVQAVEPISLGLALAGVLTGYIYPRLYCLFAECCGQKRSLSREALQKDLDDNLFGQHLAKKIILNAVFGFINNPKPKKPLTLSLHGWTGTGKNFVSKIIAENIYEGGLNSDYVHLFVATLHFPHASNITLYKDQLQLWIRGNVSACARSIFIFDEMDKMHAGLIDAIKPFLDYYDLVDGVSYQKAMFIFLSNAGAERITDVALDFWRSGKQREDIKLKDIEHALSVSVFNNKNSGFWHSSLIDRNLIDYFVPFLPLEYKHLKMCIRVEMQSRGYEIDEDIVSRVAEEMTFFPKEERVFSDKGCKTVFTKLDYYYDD
# protocol: small-molecule binders of mutant TOR1A in lysate, primary screen, cell lysate, small-molecule microarray, COS7 lysate, 635/667 nm fluorescence (AID 1150);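 further: score pools 667 nm emission and signal to noise measuring lysate protein binding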
# condition info: COS7 hTOR1A mutant lysate, 635 nm fluorescence, higher = more signal
measured metric: composite z-score
Please reply with the value in numeric form only.

Some entries whose results are on file:
C=CCC(OC(C)=O)[C@@H]1[C@@H](N(Cc2cccc3ccccc23)C(=O)Cc2ccc(F)cc2)c2cc(OCCCO)ccc2N1C(=O)c1ccc2ccccc2n1 (some centres not stated): -0.101
COc1ccc(CCNC(=O)[C@@]2(Sc3ccc(C)cc3)CC(=O)N(C3Cc4ccccc4C3)[C@@H]2c2ccc(CO)cc2)cc1: 0.811
Cc1ccc(S[C@]2(C(=O)NCCCN(C)C)CC(=O)N(C3CCCCC3)[C@@H]2c2ccc(CO)cc2)cc1: -1.11

Tell me the measured composite z-score of "COC(=O)c1c(CC[C@@H](CO)NC(=O)N2CCC[C@H]2Cn2cc(Cc3ccccc3)nn2)oc(C(C)=O)c1C(=O)OC" , please.
0.398

Tell me the measured composite z-score of "COCCOC(=O)N1C(=O)[C@@]2(c3cc(C#Cc4ccc(OC)cc4)ccc31)[C@H](C(=O)Nc1nc3ccccc3s1)[C@H]1C(=O)O[C@H](c3ccccc3)[C@H](c3ccccc3)N1[C@@H]2c1ccc(O)cc1" , please.
0.811

Tell me the measured composite z-score of "C#CCN([C@@H](Cc1ccc(O)cc1)C(=O)OC)[C@@H](/C=C/C1CC1)[C@H](O)Cc1ccccc1" , please.
-0.12

Tell me the measured composite z-score of "O=C1C[C@@](C(=O)NCCN2CCOCC2)(c2ccc([N+](=O)[O-])cc2)[C@@H](c2ccc(CO)cc2I)N1C1CCCCC1" , please.
0.896

Cited source: PubChem BioAssay
